B1: RSPH3 (parent)
chain: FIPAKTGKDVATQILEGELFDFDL

# Variants of: B1
# Measurement description: protein stability index of a GFP-peptide fusion (GPS, HEK-293T) (PSI 1-6); higher = more stable;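 note: lentivirally expressed fusions sorted by FACS into six bins by GFP to DsRed ratio, PSI derived from sequencing read proportions per bin multiplied by bin number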
# Test conditions: c terminus: a fixed tail appended
Hi, to clarify the labels: Criterion met covers protein stability index from 2 upward, Criterion not met covers anything below 2.

| Mutation label | Assigned label |
| --- | --- |
| D23F | Criterion not met |
| E18R | Criterion met |
| G17V | Criterion met |
| F1A | Criterion met |
| K5H | Criterion not met |
| L15F | Criterion met |
| F1H | Criterion met |
| D21S | Criterion met |
| T12K | Criterion not met |
| V10K | Criterion not met |
| V10D | Criterion met |
| E16G | Criterion met |
| F20I | Criterion not met |
| F20L | Criterion met |
| T6R | Criterion not met |
| D23H | Criterion not met |
| I14Q | Criterion not met |
| F1P | Criterion met |
| E18G | Criterion not met |
| A4M | Criterion met |
| K8N | Criterion met |
| P3S | Criterion met |
| G17N | Criterion not met |
| G7R | Criterion not met |
| D9W | Criterion met |
| K8V | Criterion met |
| K8H | Criterion not met |
| P3A | Criterion met |
| K5A | Criterion not met |
| D21P | Criterion met |
| E16F | Criterion met |
| E16Q | Criterion not met |
| L24V | Criterion not met |
| G17S | Criterion not met |
| D23E | Criterion not met |
| K8G | Criterion not met |
| K5N | Criterion met |
| V10T | Criterion met |
| T6M | Criterion not met |
| F22G | Criterion met |
| V10S | Criterion not met |
| F22I | Criterion not met |
| T12S | Criterion not met |
| K8C | Criterion met |
| L15H | Criterion met |
| P3V | Criterion not met |
| G17Q | Criterion met |
| I2Q | Criterion met |
| G7V | Criterion met |
| F1M | Criterion met |
| P3L | Criterion met |
| A11M | Criterion not met |
| I14S | Criterion not met |
| L19E | Criterion met |
| I14N | Criterion not met |
| K8E | Criterion met |
| G7S | Criterion met |
| V10M | Criterion not met |
